- TEST SUMMARY: Hydrogen peroxide oxidation of PAHs at near neutral pH (modified Fenton's reagent) in Quakertown silt loam
- REPORTED CONDITIONS: mFR + gallic acid, pH ca. 6.0-6.5
MEASUREMENT LABEL: % remaining in soil (b %)
Value expressed in b %; do not type the unit.

IN: Fill in: % remaining in soil of c1ccc2cc3ccccc3cc2c1 is ___
OUT: 66.8

IN: Fill in: % remaining in soil of c1cc2ccc3cccc4ccc(c1)c2c34 is ___
OUT: 58.9

IN: Fill in: % remaining in soil of c1ccc2c(c1)cc1ccc3cccc4ccc2c1c34 is ___
OUT: 49.6

IN: Fill in: % remaining in soil of c1ccc2c(c1)ccc1c3ccccc3ccc21 is ___
OUT: 91.1
